# TESTED TARGET: UniProt:P10635
# Sequence (P10635 whole entry): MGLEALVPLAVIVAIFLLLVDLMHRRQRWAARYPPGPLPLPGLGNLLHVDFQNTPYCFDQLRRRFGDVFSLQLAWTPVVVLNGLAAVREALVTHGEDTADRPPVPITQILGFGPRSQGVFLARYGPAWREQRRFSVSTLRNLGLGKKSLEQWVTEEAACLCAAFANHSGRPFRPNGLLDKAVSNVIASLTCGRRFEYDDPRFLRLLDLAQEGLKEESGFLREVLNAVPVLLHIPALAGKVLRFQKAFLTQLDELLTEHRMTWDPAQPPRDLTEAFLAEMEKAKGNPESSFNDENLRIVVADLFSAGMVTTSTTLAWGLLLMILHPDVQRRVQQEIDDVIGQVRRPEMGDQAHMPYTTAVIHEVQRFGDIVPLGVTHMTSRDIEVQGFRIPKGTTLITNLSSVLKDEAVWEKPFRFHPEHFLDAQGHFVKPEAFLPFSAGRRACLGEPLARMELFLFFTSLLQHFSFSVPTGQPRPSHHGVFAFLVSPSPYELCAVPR
# ASSAY NOTES: Inhibition of recombinant human CYP2D6 expressed in insect cell microsomes at 1 uM using Luciferin-ME EGE as substrate preincubated for 30 mins followed by NADPH addition measured after 45 mins by luminometric method
# Assay type: ADME
# TEST CONTEXT: probe Luciferin-ME EGE
TEST READOUT: inhibition at 0.75 h, 1 µM (%)
Numbers only, in %.

Illustrative cases are given below, each with its answer.
COc1cc(C(=O)NC(=N)Nc2ccc(C)c(NC(=O)c3ccc(-c4ccccc4)cc3)c2)cc(OC)c1OC.Cl 19
COc1cc(C(=O)NC(=S)Nc2ccc(C)c(NC(=O)c3ccc(-c4ccc(F)cc4)cc3)c2)cc(OC)c1OC 18
COc1cc(C(=O)NC(=N)Nc2ccc(C)c(NC(=O)c3ccc(-c4ccc(F)cc4)cc3)c2)cc(OC)c1OC.Cl 20

Now look at this one.
inhibition at 0.75 h, 1 µM measured on COc1cc(C(=O)NC(=N)Nc2ccc(C)c(NC(=O)c3ccc(CCc4ccccc4)cc3)c2)cc(OC)c1OC.Cl = 15

====

# ASSAY NOTES: Drug recovery in mouse deproteinized plasma at 37 degC after 120 mins by HPLC-MS/MS analysis
# Format: ADME, cell-free
# TEST CONTEXT: read-out: Drug recovery
TEST READOUT: remaining at 2 h
Give me the value, and tack the unit on after it.

Sample COc1cc(C(=O)NC(=N)Nc2ccc(C)c(NC(=O)c3ccc(-c4ccccc4)cc3)c2)cc(OC)c1OC.Cl ; remaining at 2 h observed: 83%

====

# ASSAY NOTES: Half life in cryopreserved mouse liver microsomes at 1 uM after 120 mins by HPLC-MS/MS analysis
# Type: ADME, microsome
Task for the reader: assign each of the following molecules its reported half-life at 1 µM.
Answers are plain numbers, in min.

CCOc1ccc2ccc(=O)oc2c1 4.84

Pending molecule:
# molecule COc1cc(C(=O)NC(=N)Nc2ccc(C)c(NC(=O)c3ccc(CCc4ccccc4)cc3)c2)cc(OC)c1OC.Cl ; its half-life at 1 µM = 8.07

====

Record form. Attribute: inhibition at 10 min, 10 µM. Fill in for each entry.
# TESTED TARGET: CYP3A4 (Homo sapiens)
# Sequence (P08684 whole entry): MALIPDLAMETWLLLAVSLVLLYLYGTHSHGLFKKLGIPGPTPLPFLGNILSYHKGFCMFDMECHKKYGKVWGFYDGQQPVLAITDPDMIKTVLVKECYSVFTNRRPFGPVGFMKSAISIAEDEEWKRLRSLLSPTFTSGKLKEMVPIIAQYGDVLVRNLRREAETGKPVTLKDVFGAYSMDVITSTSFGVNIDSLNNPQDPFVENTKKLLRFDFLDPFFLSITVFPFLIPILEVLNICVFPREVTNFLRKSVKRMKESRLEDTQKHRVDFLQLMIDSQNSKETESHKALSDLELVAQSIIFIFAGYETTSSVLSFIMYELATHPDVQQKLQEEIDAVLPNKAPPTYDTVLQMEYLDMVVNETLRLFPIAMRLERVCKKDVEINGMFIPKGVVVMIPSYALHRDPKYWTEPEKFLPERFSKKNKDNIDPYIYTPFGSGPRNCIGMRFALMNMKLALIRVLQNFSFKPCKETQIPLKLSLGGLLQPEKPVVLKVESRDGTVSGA
# ASSAY NOTES: Inhibition of recombinant human CYP3A4 expressed in insect cell microsomes at 10 uM using Luciferin-IPA as substrate preincubated for 10 mins followed by NADPH addition measured after 10 mins by luminometric method
# Type: ADME
# TEST CONTEXT: probe Luciferin-IPA
One number for each entry, in %.

COc1cc(C(=O)NC(=N)Nc2ccc(C)c(NC(=O)c3ccc(-c4ccc(F)cc4)cc3)c2)cc(OC)c1OC.Cl 82
COc1cc(C(=O)NC(=N)Nc2ccc(C)c(NC(=O)c3ccc(CCc4ccccc4)cc3)c2)cc(OC)c1OC.Cl 92
COc1cc(C(=O)NC(=S)Nc2ccc(C)c(NC(=O)c3ccc(-c4ccc(F)cc4)cc3)c2)cc(OC)c1OC 15

For the next question, use this compound.
Item: COc1cc(C(=O)NC(=N)Nc2ccc(C)c(NC(=O)c3ccc(-c4ccccc4)cc3)c2)cc(OC)c1OC.Cl | inhibition at 10 min, 10 µM: 87

====

# TESTED TARGET: CYP1A2 (Homo sapiens, UniProt P05177)
# Sequence (P05177 whole entry): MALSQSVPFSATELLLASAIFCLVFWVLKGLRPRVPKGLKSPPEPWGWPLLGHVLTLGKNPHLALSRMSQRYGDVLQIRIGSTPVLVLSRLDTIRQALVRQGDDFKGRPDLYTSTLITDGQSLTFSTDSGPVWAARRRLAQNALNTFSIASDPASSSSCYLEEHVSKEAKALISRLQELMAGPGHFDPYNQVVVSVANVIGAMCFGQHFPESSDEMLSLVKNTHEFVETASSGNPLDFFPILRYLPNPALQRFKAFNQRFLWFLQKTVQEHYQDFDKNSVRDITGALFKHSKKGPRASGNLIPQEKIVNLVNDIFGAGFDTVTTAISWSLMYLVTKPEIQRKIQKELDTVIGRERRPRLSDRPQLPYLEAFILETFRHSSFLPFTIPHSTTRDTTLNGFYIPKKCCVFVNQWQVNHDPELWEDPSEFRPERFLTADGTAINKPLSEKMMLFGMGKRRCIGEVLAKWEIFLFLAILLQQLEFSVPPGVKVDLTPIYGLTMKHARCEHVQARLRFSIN
# ASSAY NOTES: Inhibition of recombinant human CYP1A2 expressed in insect cell microsomes at 1 uM using Luciferin-ME as substrate preincubated for 10 mins followed by NADPH addition measured after 30 mins by luminometric method
# Type: ADME
# TEST CONTEXT: probe Luciferin-ME
TEST READOUT: inhibition at 0.5 h, 1 µM (%)
One number for each entry, in %.

The following compounds have reported results that may help.
COc1cc(C(=O)NC(=N)Nc2ccc(C)c(NC(=O)c3ccc(CCc4ccccc4)cc3)c2)cc(OC)c1OC.Cl 29
COc1cc(C(=O)NC(=S)Nc2ccc(C)c(NC(=O)c3ccc(-c4ccc(F)cc4)cc3)c2)cc(OC)c1OC 2

List inhibition at 0.5 h, 1 µM for every entry below, keeping the order given.
1. COc1cc(C(=O)NC(=N)Nc2ccc(C)c(NC(=O)c3ccc(-c4ccc(F)cc4)cc3)c2)cc(OC)c1OC.Cl
2. COc1cc(C(=O)NC(=N)Nc2ccc(C)c(NC(=O)c3ccc(-c4ccccc4)cc3)c2)cc(OC)c1OC.Cl

[46, 49]

====

# ASSAY NOTES: Apparent clearance in CD1 mouse at 200 mg/kg, po administered as single dose by HPLC-MS/MS analysis
# Type: ADME, organism-based
# TEST CONTEXT: in vivo
Answer each item with its documented CL/F.
Answers are plain numbers, in mL/min/kg.

Please review the entries below; each comes with its answer.
COc1cc(C(=O)NC(=N)Nc2ccc(C)c(NC(=O)c3ccc(CCc4ccccc4)cc3)c2)cc(OC)c1OC.Cl 24.3
COc1cc(C(=O)NC(=N)Nc2ccc(C)c(NC(=O)c3ccc(-c4ccccc4)cc3)c2)cc(OC)c1OC.Cl 14

Item: COc1cc(C(=O)NC(=N)Nc2ccc(C)c(NC(=O)c3ccc(-c4ccc(F)cc4)cc3)c2)cc(OC)c1OC.Cl | CL/F: 14.9

====

# ASSAY NOTES: in vitro
# TEST CONTEXT: human, Caco-2
# Description: Apparent permeability of the compound from apical to basolateral side in human Caco2 cells after 120 mins by LC-MS/MS analysis
TEST READOUT: Papp A→B at 2 h

COMPOUND	Papp A→B at 2 h
COc1cc(C(=O)NC(=N)Nc2ccc(C)c(NC(=O)c3ccc(-c4ccc(F)cc4)cc3)c2)cc(OC)c1OC.Cl	0.366 ×10⁻⁶ cm/s

Need Papp A→B at 2 h for each of these compounds.
1. COc1cc(C(=O)NC(=N)Nc2ccc(C)c(NC(=O)c3ccc(CCc4ccccc4)cc3)c2)cc(OC)c1OC.Cl
2. CC(C)NCC(O)COc1cccc2ccccc12 (centres undefined) [PROPRANOLOL]
3. COc1cc(C(=O)NC(=N)Nc2ccc(C)c(NC(=O)c3ccc(-c4ccccc4)cc3)c2)cc(OC)c1OC.Cl

["0.701 ×10⁻⁶ cm/s", "30.9 ×10⁻⁶ cm/s", "0.428 ×10⁻⁶ cm/s"]

====

Hi there, I'd appreciate the recorded inhibition at 0.5 h, 5 µM for every entry that follows.
# TESTED TARGET: CYP2C19 (Homo sapiens, UniProt P33261)
# Sequence (P33261 whole entry): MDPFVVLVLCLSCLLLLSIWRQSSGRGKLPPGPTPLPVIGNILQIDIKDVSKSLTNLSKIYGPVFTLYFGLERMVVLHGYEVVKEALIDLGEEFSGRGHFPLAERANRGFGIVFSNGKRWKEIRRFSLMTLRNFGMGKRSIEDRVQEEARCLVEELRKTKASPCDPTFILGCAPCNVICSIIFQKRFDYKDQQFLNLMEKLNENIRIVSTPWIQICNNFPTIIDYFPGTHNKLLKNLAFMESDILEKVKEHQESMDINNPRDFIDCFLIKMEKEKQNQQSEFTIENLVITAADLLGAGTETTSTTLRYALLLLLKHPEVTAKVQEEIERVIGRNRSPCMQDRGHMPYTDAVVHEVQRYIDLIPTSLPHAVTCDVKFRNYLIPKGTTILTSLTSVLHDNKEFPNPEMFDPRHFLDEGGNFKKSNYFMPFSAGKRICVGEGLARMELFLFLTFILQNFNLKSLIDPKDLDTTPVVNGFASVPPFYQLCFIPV
# ASSAY NOTES: Inhibition of recombinant human CYP2C19 expressed in insect cell microsomes at 5 uM using Luciferin-H EGE as substrate preincubated for 20 mins followed by NADPH addition measured after 30 mins by luminometric method
# Format: ADME
# TEST CONTEXT: probe Luciferin-H EGE
I'd appreciate it if you included the unit after the number.

COc1cc(C(=O)NC(=N)Nc2ccc(C)c(NC(=O)c3ccc(CCc4ccccc4)cc3)c2)cc(OC)c1OC.Cl 81%
COc1cc(C(=O)NC(=S)Nc2ccc(C)c(NC(=O)c3ccc(-c4ccc(F)cc4)cc3)c2)cc(OC)c1OC 33%
COc1cc(C(=O)NC(=N)Nc2ccc(C)c(NC(=O)c3ccc(-c4ccccc4)cc3)c2)cc(OC)c1OC.Cl 79%

Pending compound:
Entry COc1cc(C(=O)NC(=N)Nc2ccc(C)c(NC(=O)c3ccc(-c4ccc(F)cc4)cc3)c2)cc(OC)c1OC.Cl , inhibition at 0.5 h, 5 µM reported as 76%

====

# TESTED TARGET: UniProt P10635
# ASSAY NOTES: Inhibition of recombinant human CYP2D6 expressed in insect cell microsomes at 10 uM using Luciferin-ME EGE as substrate preincubated for 30 mins followed by NADPH addition measured after 45 mins by luminometric method
# Assay type: ADME
# TEST CONTEXT: probe Luciferin-ME EGE
TEST READOUT: inhibition at 0.75 h, 10 µM
Answer with the number, then the unit.

Consider the reported inhibition at 0.75 h, 10 µM for these compounds:
COc1cc(C(=O)NC(=N)Nc2ccc(C)c(NC(=O)c3ccc(CCc4ccccc4)cc3)c2)cc(OC)c1OC.Cl 11%
COc1cc(C(=O)NC(=N)Nc2ccc(C)c(NC(=O)c3ccc(-c4ccc(F)cc4)cc3)c2)cc(OC)c1OC.Cl 21%

Items follow; give inhibition at 0.75 h, 10 µM for each.
1. COc1cc(C(=O)NC(=S)Nc2ccc(C)c(NC(=O)c3ccc(-c4ccc(F)cc4)cc3)c2)cc(OC)c1OC
2. COc1cc(C(=O)NC(=N)Nc2ccc(C)c(NC(=O)c3ccc(-c4ccccc4)cc3)c2)cc(OC)c1OC.Cl

["6%", "23%"]

====

I'd appreciate it if you could supply recovery at 2 h values for the items below.
# ASSAY NOTES: in vitro
# TEST CONTEXT: human, Caco-2
# Description: Apparent permeability of the compound from apical to basolateral side in human Caco2 cells assessed as drug recovery after 120 mins by LC-MS/MS analysis
Answers are plain numbers, in %.

COMPOUND	READOUT UNIT	MEASURED RESULT
COc1cc(C(=O)NC(=S)Nc2ccc(C)c(NC(=O)c3ccc(-c4ccc(F)cc4)cc3)c2)cc(OC)c1OC	%	65.4
COc1cc(C(=O)NC(=N)Nc2ccc(C)c(NC(=O)c3ccc(-c4ccc(F)cc4)cc3)c2)cc(OC)c1OC.Cl	%	33
COc1cc(C(=O)NC(=N)Nc2ccc(C)c(NC(=O)c3ccc(CCc4ccccc4)cc3)c2)cc(OC)c1OC.Cl	%	41.1
CC(C)NCC(O)COc1ccc(CC(N)=O)cc1 (stereo unspecified)	%	94.7

Provide recovery at 2 h values for the following items, in order.
1. CC(C)NCC(O)COc1cccc2ccccc12 (stereo unspecified)
2. COc1cc(C(=O)NC(=N)Nc2ccc(C)c(NC(=O)c3ccc(-c4ccccc4)cc3)c2)cc(OC)c1OC.Cl

1. 70
2. 16.5
